- SUBJECT OF TEST: α-synuclein (α-syn) (Homo sapiens, UniProt P37840)
- Construct: made in house
- PROTOCOL NOTES: α-synuclein in vitro oligomer formation assay (SIFT)
- Assay type: biochemical
- STATED CONDITIONS: relative to high control, 10 μM compound, 1 % DMSO, 10 μM FeCl3; read-out: % inhibition α-syn SIFT
- Description: Expression and purification of recombinant wild-type α-synuclein (α-syn) was performed according to established protocols. Fluorescent labelling of α-syn and quality control were performed as described. […] Aggregation of α-syn was measured by scanning for intensely fluorescent targets (SIFT). […] The frequency of specific combinations of “green” and “red” photon counts was recorded in a two-dimensional intensity distribution histogram, as described previously. […]
VALUE TYPE: inhibition at 10 µM

>>> assay_result("FC(F)(F)c1cccc(-c2cc(-c3ccc4c(c3)OCO4)n[nH]2)c1 [anle236b]")
"< 10%"

Query: Recall the recorded inhibition at 10 µM for c1cc2c(cc1-c1cc(-c3ccc4c(c3)OCO4)[nH]n1)OCO2 [anle232b] with α-synuclein (α-syn) (Homo sapiens, UniProt P37840) and state it.
Reply: < 10%

Query: Recall the recorded inhibition at 10 µM for Ic1cccc(-c2cc(-c3ccc4c(c3)OCO4)n[nH]2)c1 [anle197b] with α-synuclein (α-syn) (Homo sapiens, UniProt P37840) and state it.
Reply: < 10%

Query: Recall the recorded inhibition at 10 µM for Brc1cccc(-c2cc(-c3ccc4[nH]cnc4c3)n[nH]2)c1 [sery417] with α-synuclein (α-syn) (Homo sapiens, UniProt P37840) and state it.
Reply: < 10%

Query: Recall the recorded inhibition at 10 µM for Brc1ccccc1-c1cc(-c2ccc3c(c2)OCO3)n[nH]1 [anle234b] with α-synuclein (α-syn) (Homo sapiens, UniProt P37840) and state it.
Reply: < 10%

FYI, the data here is from paper PMC3661926.
